Tested on: Saccharomyces cerevisiae;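 further: PSI is a weighted mean of sequencing reads over stability bins, variants kept only with over 10 reads, mCherry proximal and sfGFP distal, peptide attached via GGGS linker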
Test: protein stability index of tFT-peptide fusion (C-terminal peptide) (PSI (0-1 scale)); higher = more stable (slower turnover)
Settings: genetic background: wild type; temperature: 37 C
Parameter threshold = 0.5. Response is 1 when protein stability index meets or exceeds it, else 0.

| input-sequence | target-desc | group |
| --- | --- | --- |
| PTAGFFGLLVLV | Saccharomyces cerevisiae | 0 |
| WQGWFLSLCIWV | Saccharomyces cerevisiae | 0 |
| GFVCFIHLFLCF | Saccharomyces cerevisiae | 0 |
| FPPRLIPLLARS | Saccharomyces cerevisiae | 0 |
| LSLFPFLPSPCP | Saccharomyces cerevisiae | 1 |

Reported protein stability index at or above 0.5? VLWSCCGGVRVR
1

Reported protein stability index at or above 0.5? WRCLHLVYLFFH
0
